Please assign Not satisfied whenever melting point is at or above -40 °C, and Satisfied whenever it is below.

{"Molecule": "ClCCOCCCl", "Assigned class": "Satisfied"}

State whether -40 °C exceeds melting point recorded for c1ccncc1 .
Satisfied

What do you get for CCC(=O)OC [methyl propionate] ?
Satisfied

What do you get for CC1(C)[C@@H]2CC[C@@]1(C)C(=O)C2 ?
Not satisfied

What do you get for Brc1ccc2sccc2c1 [5-bromobenzo[b]thiophene] ?
Not satisfied

* * *

We begin with a simple list: items and their reported melting point.
Provide only the numeric value, understood in °C.

Worked set:
{"Compound": "c1ccc2c(c1)ccc1cc3c(ccc4ccccc43)cc12 [1,2,5,6-Dibenzanthracene dibenz[a,h]anthracene]", "melting point [°C]": 266}
{"Compound": "O=Cc1ccc([N+](=O)[O-])cc1[N+](=O)[O-] [2,4-dinitrobenzaldehyde]", "melting point [°C]": 66}
{"Compound": "CC1=C(C)C(C)N=N1 (stereo not given) [1H-pyrazole, 3,4,5-trimethyl-]", "melting point [°C]": 138}
{"Compound": "COc1ccc(C(=O)CC#N)cc1 [4-methoxybenzoylacetonitrile]", "melting point [°C]": 128}
{"Compound": "CCOC(=O)CC(C)C [ethyl isovalerate]", "melting point [°C]": -99}
{"Compound": "OB(O)c1ccc(N(Cc2ccccc2)Cc2ccccc2)cc1 [4-(dibenzylamino)benzeneboronic acid]", "melting point [°C]": 186}

Looking for the measured melting point of Cc1ccc(C=O)cc1 [p-tolualdehyde] , can you help?
-6

What do you get for C#CC1(O)CCC2C3CCc4cc(O)ccc4C3CCC21C (stereo not given) [ethinylestradiol] ?
141

What do you get for CC(=O)Cl [acetyl chloride] ?
-112

What do you get for CCc1ccc(-c2ccccc2)cc1 [1-ethyl-4-phenylbenzene] ?
47

What do you get for Cc1ccc(C)c(-c2ccc([N+](=O)[O-])cc2)c1 [2,5-Dimethyl-4'-nitrobiphenyl] ?
98.3

What do you get for Clc1ncc[nH]1 [2-chloroimidazole] ?
166

* * *

Parameter: melting point (°C)
Provide only the numeric value, understood in °C.

{"Compound": "NS(=O)(=O)c1ccc(F)c2nonc12 [7-fluorobenzofurazan-4-sulfonamide]", "melting point [°C]": 144}
{"Compound": "CCCCNC(=O)NS(=O)(=O)c1ccc(C)cc1 [tolbutamide]", "melting point [°C]": 129}
{"Compound": "O=[N+]([O-])/C=C/c1cccc([N+](=O)[O-])c1", "melting point [°C]": 126}
{"Compound": "C1CC1", "melting point [°C]": -127}

Looking for the measured melting point of CCCCCCCCC(=O)O[C@H]1CC[C@@]2(C)C(=CC[C@H]3[C@@H]4CC[C@H]([C@H](C)CCCC(C)C)[C@@]4(C)CC[C@@H]32)C1 [cholesteryl nonanoate] , can you help?
77

What do you get for CN[C@@H](C)[C@H](O)c1ccccc1 ?
34

What do you get for COC(=O)C(O)c1ccccc1[N+](=O)[O-] (stereo not given) [methyl hydroxy(2-nitrophenyl)acetate] ?
62

* * *

Please assign Criterion not met whenever melting point is at or above -50 °C, and Criterion met whenever it is below.

Illustrative cases are given below, each with its answer.
{"Molecule": "NC1CCCCC1 [cyclohexylamine]", "Assigned class": "Criterion not met"}
{"Molecule": "COc1ccccc1NC(=O)c1cnc(C(C)(C)C)c(Cl)n1", "Assigned class": "Criterion not met"}
{"Molecule": "CCC1(CC)C(=O)CCNC1=O [piperidione]", "Assigned class": "Criterion not met"}
{"Molecule": "CN(C)CCO [2-(dimethylamino)ethanol]", "Assigned class": "Criterion met"}
{"Molecule": "CCCCCN [Amylamine]", "Assigned class": "Criterion met"}

In the following, a different molecule is considered.
State whether -50 °C exceeds melting point recorded for O=C1O[C@H]([C@@H](O)CO)C(O)=C1O [Vitamin C] .
Criterion not met

* * *

Please assign false whenever melting point is at or above 100 °C, and true whenever it is below.

State whether 100 °C exceeds melting point recorded for CC(C)(C)c1cccc(C(C)(C)C)c1O [2,6-di-tert-butylphenol] .
true

What do you get for CCOC(=O)c1c[nH]nc1N [ethyl 3-amino-1h-pyrazole-4-carboxylate] ?
false

What do you get for O=[N+]([O-])c1ccc(N=Nc2ccc(O)cc2O)cc1 [4-[(4-Nitrophenyl)diazenyl]benzene-1,3-diol] ?
false

What do you get for ClC1=C(Cl)C2(Cl)C3C(Cl)C(Cl)CC3C1(Cl)C2(Cl)Cl (stereo not drawn) [trans-Chlordane] ?
false

What do you get for COC1(CBr)OC(COC(=O)c2ccc(C)cc2)C(OC(=O)c2ccc(C)cc2)C1OC(=O)c1ccc(C)cc1 (configuration not stated) ?
false

What do you get for CCCCCC(=O)O [hexanoic_acid] ?
true

What do you get for C=C(C)CC(C)(C)C [2,4,4-trimethyl-1-pentene] ?
true

What do you get for O=C(Nc1ccccc1)Nc1nnc(C(F)(F)F)s1 [N-phenyl-N'-[5-(trifluoromethyl)-1,3,4-thiadiazol-2-yl]urea] ?
false

What do you get for Nc1ccc(Cl)cc1 [4-chloroaniline] ?
true

What do you get for CC(=O)c1ccc(Cl)s1 [2-acetyl-5-chlorothiophene] ?
true

* * *

Parameter: melting point (°C)
Provide only the numeric value, understood in °C.

Worked set:
{"Compound": "C(=Cc1ccccc1)c1ccccc1", "Measurement units": "°C", "melting point": 126}
{"Compound": "CCOC(=O)/C(C#N)=N\\Nc1ccccc1[N+](=O)[O-] [Ethyl (2Z)-cyano[(2-nitrophenyl)hydrazono]acetate]", "Measurement units": "°C", "melting point": 103}
{"Compound": "O=Cc1cccc(C=O)c1 [isophthalaldehyde]", "Measurement units": "°C", "melting point": 89}
{"Compound": "O=C(O)c1c(Cl)cccc1[N+](=O)[O-]", "Measurement units": "°C", "melting point": 164}
{"Compound": "CC(C)S[C@@H]1O[C@H](CO)[C@H](O)[C@H](O)[C@H]1O [isopropyl-beta-d-thiogalactoside]", "Measurement units": "°C", "melting point": 112}

Looking for the measured melting point of CCCCCCC#N [hexyl_cyanide] , can you help?
-63

What do you get for CS(C)(=O)=O ?
110

What do you get for COc1cc(C=O)ccc1O [4-Hydroxy-3-methoxybenzaldehyde] ?
82

What do you get for CCOC(=O)CNC(=O)c1ccccc1 [ethyl hippurate] ?
59

What do you get for C=CCNC(N)=S ?
71

What do you get for Oc1ccc(Nc2ccccc2)cc1 [4-hydroxydiphenylamine] ?
69

What do you get for O=C(O)CS ?
-16.5

What do you get for O=C(CCCN1CCC(O)(c2ccc(Cl)cc2)CC1)c1ccc(F)cc1 [haloperidol] ?
149

What do you get for COC1=CC(=O)CC(C)C12Oc1c(Cl)c(OC)cc(OC)c1C2=O (stereo unspecified) ?
219

What do you get for c1cc2ccc3ccc4ccc5ccc6ccc1c1c2c3c4c5c61 ?
438

What do you get for COC1(OC)CCC2(C)C(CCC3C4CCCC4(C)CCC32)C1 (stereo unspecified) ?
80

What do you get for O=[N+]([O-])c1ccc(O)c2ccccc12 ?
166

What do you get for Oc1c(Cl)cc(Cl)c2cccnc12 [5,7-dichloro-8-hydroxyquinoline] ?
181

What do you get for O=C1NC(=O)c2cc([N+](=O)[O-])ccc21 [4-nitrophthalimide] ?
198

What do you get for CC1(C)[C@@H]2CC[C@@]1(C)C(=O)C2 ?
180

What do you get for O=Cc1ccc(O)c([N+](=O)[O-])c1 [4-hydroxy-3-nitrobenzaldehyde] ?
142

What do you get for c1ccc(-c2c3ccccc3c(-c3ccccc3)c3ccccc23)cc1 ?
251

What do you get for C=CCCCCCCCCCCCC [Tetradec-1-ene] ?
-13

What do you get for BrCCCCCBr ?
-40

What do you get for Brc1n[nH]c(Br)c1Br ?
186

What do you get for Nc1ncnc2c1ncn2Cc1c(F)cccc1Cl ?
245

What do you get for CCCOC(C)=O [Propyl acetate] ?
-95

What do you get for CC(O)c1c(F)c(F)c(F)c(F)c1F (stereo unspecified) ?
33

What do you get for N=C(NCCCCCCNC(=N)NC(=N)Nc1ccc(Cl)cc1)NC(=N)Nc1ccc(Cl)cc1 [Chlorhexidine] ?
134

* * *

Where a name gives a salt, the structure may show the parent alone.
We begin with a simple list: items and their reported melting point.
Be sure to follow the number with its unit.

Worked set:
{"Molecule": "O=C(O)/C=C/c1ccccc1Br [trans-2-bromocinnamic acid]", "melting point": "218 °C"}
{"Molecule": "OCC12CC3CC(CC(C3)C1)C2", "melting point": "117 °C"}
{"Molecule": "Oc1ccccc1Cl", "melting point": "8 °C"}
{"Molecule": "COc1cc(C=O)cc([N+](=O)[O-])c1O", "melting point": "176 °C"}
{"Molecule": "O=C1OC(c2ccccc2)=NC1=Cc1ccc(-c2ccccc2)o1", "melting point": "143 °C"}
{"Molecule": "CCCCC [pentane]", "melting point": "-130 °C"}

Looking for the measured melting point of C#CCOc1c(Cl)cccc1Cl , can you help?
44 °C

What do you get for COC(=O)/C=CC(=O)OC [dimethyl maleate] ?
-19 °C

What do you get for Nc1c(Br)cccc1Br ?
81 °C

What do you get for Oc1cc(Cl)ccc1Oc1ccc(Cl)cc1Cl ?
57 °C
